System: HCI-008 (organoid from a HER2-enriched breast cancer xenograft)
ASSAY_REMARKS: CTG-3D luminescence at 96 h relative to day-0 seeding control (ratio to day 0); higher = more growth / less cytotoxicity; PDxO 3D drug screen, 96 h, CTG-3D normalised to day-0 seeding control.
TEST_CONTEXT: 0.1 µM; days in culture: 228
READOUT_LABEL: CTG-3D luminescence at 96 h
// keep it numeric: no unit symbol after the value

The cases that follow already have their CTG-3D luminescence at 96 h on record.
COc1cccc2c1C(=O)c1c(O)c3c(c(O)c1C2=O)C[C@@](O)(C(=O)CO)C[C@@H]3O[C@H]1C[C@H](N)[C@H](O)[C@H](C)O1    1.51
CNC(=O)c1cccc(-c2ccc3c(N4CCOC[C@@H]4C)nc(N4CCOC[C@@H]4C)nc3n2)c1    0.913
C=CCn1c(=O)c2cnc(Nc3ccc(N4CCN(C)CC4)cc3)nc2n1-c1cccc(C(C)(C)O)n1    1.89

Field request: CTG-3D luminescence at 96 h | item: "CCc1c2c(nc3ccc(O)cc13)-c1cc3c(c(=O)n1C2)COC(=O)[C@]3(O)CC"
0.349
